# maps each entry to its melting point

| STRUCTURE | RESULT VALUE |
| --- | --- |
| CN1CCC(c2ccc(-c3nc4cccc5c4n3CCNC5=O)cc2)CC1 | > 240 °C (dec.) |
| COC(=O)CCCc1cc2cccc3c2n1CCNC3=O | 175 to 176 °C |
| CCOC(=O)c1nc2cccc3c2n1CCNC3=O | 237 to 239 °C (dec.) |
| CN(C)c1cc(-c2nc3cccc4c3n2CCNC4=O)ccn1 | 266 to 268 °C |

Now for another entry.
QUERY: // melting point lookup, key: CNCc1ccc(-c2cc3cccc4c3n2CCNC4=O)cc1
RESULT: 178 to 180 °C

----------
target: purified PARP protein (Homo sapiens, UniProt P09874); test: PARP enzyme inhibition assay; assay type: biochemical; details: 20 nM purified PARP (5 nM for tight-binding inhibitors), 500 μM NAD+, 25° C.; several values in one cell = repeat determinations; read-out: Inhibition Constant Ki
Sequence (P09874 whole entry): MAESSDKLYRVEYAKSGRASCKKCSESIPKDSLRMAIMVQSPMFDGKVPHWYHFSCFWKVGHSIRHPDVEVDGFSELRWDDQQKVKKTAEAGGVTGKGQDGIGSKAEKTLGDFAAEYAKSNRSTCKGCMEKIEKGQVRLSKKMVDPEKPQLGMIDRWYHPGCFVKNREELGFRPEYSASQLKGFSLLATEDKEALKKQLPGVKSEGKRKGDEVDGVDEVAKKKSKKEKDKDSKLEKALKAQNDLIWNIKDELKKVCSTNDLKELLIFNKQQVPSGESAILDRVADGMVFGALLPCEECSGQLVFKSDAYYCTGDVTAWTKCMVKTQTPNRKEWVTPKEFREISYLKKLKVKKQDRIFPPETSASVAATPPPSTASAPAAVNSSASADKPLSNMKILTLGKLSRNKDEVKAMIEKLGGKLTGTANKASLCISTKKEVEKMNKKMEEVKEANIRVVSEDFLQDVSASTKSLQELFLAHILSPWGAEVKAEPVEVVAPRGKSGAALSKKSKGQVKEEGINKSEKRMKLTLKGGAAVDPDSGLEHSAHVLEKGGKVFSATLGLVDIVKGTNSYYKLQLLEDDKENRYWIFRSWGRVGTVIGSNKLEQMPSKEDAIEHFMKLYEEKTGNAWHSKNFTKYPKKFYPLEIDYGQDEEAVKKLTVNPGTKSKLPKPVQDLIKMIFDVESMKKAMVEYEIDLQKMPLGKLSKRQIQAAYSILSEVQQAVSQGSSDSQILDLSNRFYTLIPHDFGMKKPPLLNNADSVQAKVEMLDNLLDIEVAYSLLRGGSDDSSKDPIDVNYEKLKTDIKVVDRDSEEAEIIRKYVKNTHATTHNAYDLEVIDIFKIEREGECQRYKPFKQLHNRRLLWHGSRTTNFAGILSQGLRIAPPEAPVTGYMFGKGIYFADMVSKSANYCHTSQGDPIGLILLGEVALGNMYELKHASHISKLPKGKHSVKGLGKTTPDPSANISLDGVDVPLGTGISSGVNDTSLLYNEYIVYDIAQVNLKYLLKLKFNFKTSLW
pKi: −log10 of the molar value.
Cut-off 8 on pKi, inclusive. At or above means yes (1); below means no (0).

Would you please look over these solved cases?
| MOLECULE | CLASSIFICATION |
| --- | --- |
| O=C1NCCn2c(-c3cccnc3)nc3cccc1c32 | yes (1) |
| COc1ccc(C2CNC(=O)c3cccc4nc(-c5ccc(Cl)cc5)n2c34)cc1 (racemic) | no (0) |

Could you now look at the following molecule, please?
QUERY: Given Cc1c(-c2cccc(C(F)(F)F)c2)n2c3c(cccc13)C(=O)NCC2 , state whether its pKi is at least 8.
RESULT: no (0)

----------
target: UniProt P09874; assay: PARP enzyme inhibition assay; assay type: biochemical; conditions: 20 nM purified PARP (5 nM for tight-binding inhibitors), 500 μM NAD+, 25° C.; several values in one cell = repeat determinations; read-out: Inhibition Constant Ki
READOUT NAME: pKi
pKi (log units): -log10 of the concentration in mol/L.

| MOLECULE | STUDY SYSTEM | pKi |
| --- | --- | --- |
| C[C@H]1Cn2c(-c3ccc(Cn4cccc4)cc3)nc3cccc(c32)C(=O)N1 | UniProt P09874 | 8.06 |
| O=C1NCCn2c(-c3ccc(CN4CCOCC4)cc3)nc3cccc1c32 | UniProt P09874 | 8.29 |

QUERY: Fill in: pKi of C[C@H]1Cn2c(-c3ccc(CN(C)C)cc3)nc3cccc(c32)C(=O)N1 is ___
RESULT: 8.30

QUERY: O=C1NCCn2c(-c3ccc(-c4c[nH]cn4)cc3)nc3cccc1c32 ?
RESULT: 8.40

QUERY: # repeat for CC(C)Cc1nc2cccc3c2n1CCNC3=O
RESULT: 7.76

QUERY: Then this molecule: C[C@@H]1Cn2c(-c3ccc(Cl)cc3)nc3cccc(c32)C(=O)N1
RESULT: 6.95

QUERY: Subsequent entry: CC1CCC(C)N1Cc1ccc(-c2nc3cccc4c3n2CCNC4=O)cc1 (centres unmarked)
RESULT: 8.08

QUERY: # repeat for O=C1NCCn2c(-c3ccc(CN4CCc5ccccc5C4)cc3)nc3cccc1c32
RESULT: 8.10

QUERY: Same again, this time with O=C1NCCn2c(-c3ncc[nH]3)nc3cccc1c32
RESULT: 8.05

QUERY: Do the same for CN(C)CCc1ccc(-c2nc3cccc4c3n2CCNC4=O)cc1 please
RESULT: 8.30

QUERY: Next: O=C1NCCn2c(-c3ccc[nH]3)nc3cccc1c32
RESULT: 8.21

QUERY: Please answer likewise for O=C1NCCn2c(-c3ccc4ccccc4c3)nc3cccc1c32
RESULT: 8.25

QUERY: And CN(C)Cc1cccc(-c2nc3cccc4c3n2CCNC4=O)c1 ?
RESULT: 8.20

QUERY: How about O=C1NCCn2c(-c3ccc(CNCc4cccs4)cc3)nc3cccc1c32 ?
RESULT: 8.29

QUERY: Also O=C1NCCn2c(-c3cccc(Oc4ccc(Cl)c(Cl)c4)c3)nc3cccc1c32 ?
RESULT: 7.89
